targetEntity: c20s (Homo sapiens, UniProt P20618+P28074)
testName: Purified PI IC50, c20s
Type: biochemical
testSettings: Table H
valueType: Purified PI IC50 Slope c20s

COC[C@H](NC(=O)c1cnc(C)s1)C(=O)N[C@@H](COC)C(=O)N[C@@H](Cc1ccccc1)C(=O)[C@](C)(O)COC(C)=O | inactive
COC[C@H](NC(=O)c1cnc(C)s1)C(=O)N[C@@H](COC)C(=O)N[C@@H](Cc1ccccc1)C(=O)[C@](C)(O)COC(=O)c1c(Cl)cccc1Cl | inactive
COC[C@H](NC(=O)c1cnc(C)s1)C(=O)N[C@@H](COC)C(=O)N[C@@H](Cc1ccccc1)C(=O)[C@](C)(O)COP(=O)(c1ccccc1)c1ccccc1 | inactive
COC[C@H](NC(=O)c1cnc(C)s1)C(=O)N[C@@H](COC)C(=O)N[C@@H](Cc1ccccc1)/C(=N/OC)[C@@]1(C)CO1 | inactive

----------
Please go through the items and note down their Buffer pH = 7.4 % Conversion @ 1 hour.
testName: Buffer conversion rates of prodrugs to Compound B
Assay type: physicochemical
Write the numeric value and follow it with the unit.

Query: Request the reported Buffer pH = 7.4 % Conversion @ 1 hour associated with COC[C@H](NC(=O)c1cnc(C)s1)C(=O)N[C@@H](COC)C(=O)N[C@@H](Cc1ccccc1)C(=O)[C@](C)(O)CCl [20-2]
Result: 0%

Query: Request the reported Buffer pH = 7.4 % Conversion @ 1 hour associated with COC[C@H](NC(=O)c1cnc(C)s1)C(=O)N[C@@H](COC)C(=O)N[C@@H](Cc1ccccc1)C(=O)[C@](C)(O)COS(=O)(=O)CC(F)F [20-6]
Result: 5.7%

Query: Request the reported Buffer pH = 7.4 % Conversion @ 1 hour associated with COC[C@H](NC(=O)c1cnc(C)s1)C(=O)N[C@@H](COC)C(=O)N[C@@H](Cc1ccccc1)C(=O)[C@](C)(O)CBr [20-3]
Result: 23%

Query: Request the reported Buffer pH = 7.4 % Conversion @ 1 hour associated with COC[C@H](NC(=O)c1cnc(C)s1)C(=O)N[C@@H](COC)C(=O)N[C@@H](Cc1ccccc1)C(=O)[C@](C)(O)CI [20-1]
Result: 24%

Query: Request the reported Buffer pH = 7.4 % Conversion @ 1 hour associated with COC[C@H](NC(=O)c1cnc(C)s1)C(=O)N[C@@H](COC)C(=O)N[C@@H](Cc1ccccc1)C(=O)[C@](C)(O)COS(=O)(=O)Cc1ccccc1 [compound 23]
Result: 9.6%

Query: Request the reported Buffer pH = 7.4 % Conversion @ 1 hour associated with COC[C@H](NC(=O)c1cnc(C)s1)C(=O)N[C@@H](COC)C(=O)N[C@@H](Cc1ccccc1)C(=O)[C@](C)(O)COS(=O)(=O)C1CCOCC1 [compound 22]
Result: 9.8%

Query: Request the reported Buffer pH = 7.4 % Conversion @ 1 hour associated with CCCCS(=O)(=O)OC[C@@](C)(O)C(=O)[C@H](Cc1ccccc1)NC(=O)[C@H](COC)NC(=O)[C@H](COC)NC(=O)c1cnc(C)s1 [20-7]
Result: 4.2%

Query: Request the reported Buffer pH = 7.4 % Conversion @ 1 hour associated with COC[C@H](NC(=O)c1cnc(C)s1)C(=O)N[C@@H](COC)C(=O)N[C@@H](Cc1ccccc1)C(=O)[C@](C)(O)COS(=O)(=O)c1ccc(F)c(F)c1 [20-5]
Result: 13.2%

Query: Request the reported Buffer pH = 7.4 % Conversion @ 1 hour associated with COC[C@H](NC(=O)c1cnc(C)s1)C(=O)N[C@@H](COC)C(=O)N[C@@H](Cc1ccccc1)C(=O)[C@](C)(O)COS(=O)(=O)CC(F)(F)F [20-4]
Result: 21.2%

Query: Request the reported Buffer pH = 7.4 % Conversion @ 1 hour associated with COC[C@H](NC(=O)c1cnc(C)s1)C(=O)N[C@@H](COC)C(=O)N[C@@H](Cc1ccccc1)C(=O)[C@](C)(O)COS(=O)(=O)c1ccc(C)cc1 [compound 21]
Result: 20.3%

Query: Request the reported Buffer pH = 7.4 % Conversion @ 1 hour associated with CCCCCCCCS(=O)(=O)OC[C@@](C)(O)C(=O)[C@H](Cc1ccccc1)NC(=O)[C@H](COC)NC(=O)[C@H](COC)NC(=O)c1cnc(C)s1 [20-8]
Result: 10.8%

----------
testName: Conversion of prodrugs by Human Liver S9
Assay type: in vitro ADME
valueType: Human Liver S9 % Conversion @ 1 hour (%)
API: value field is a number in %; no unit string.

Query: Request the reported Human Liver S9 % Conversion @ 1 hour associated with `CCOC(=O)C(=O)O[C@](C)(CI)C(=O)[C@H](Cc1ccccc1)NC(=O)[C@H](COC)NC(=O)[C@H](COC)NC(=O)c1cnc(C)s1`
Result: 24

Query: Request the reported Human Liver S9 % Conversion @ 1 hour associated with `COC[C@H](NC(=O)c1cnc(C)s1)C(=O)N[C@@H](COC)C(=O)N[C@@H](Cc1ccccc1)C(=O)[C@@](C)(CI)OC(=O)CCCCSC(C)=O`
Result: 3

Query: Request the reported Human Liver S9 % Conversion @ 1 hour associated with `COC[C@H](NC(=O)c1cnc(C)s1)C(=O)N[C@@H](COC)C(=O)N[C@@H](Cc1ccccc1)C(=O)[C@@](C)(CI)OC(=O)Oc1ccccc1`
Result: 32

Query: Request the reported Human Liver S9 % Conversion @ 1 hour associated with `COC[C@H](NC(=O)c1cnc(C)s1)C(=O)N[C@@H](COC)C(=O)N[C@@H](Cc1ccccc1)C(=O)[C@@](C)(CI)OC(=O)CCl`
Result: 22

Query: Request the reported Human Liver S9 % Conversion @ 1 hour associated with `COC[C@H](NC(=O)c1cnc(C)s1)C(=O)N[C@@H](COC)C(=O)N[C@@H](Cc1ccccc1)C(=O)[C@@](C)(CI)OC(=O)COc1ccccc1`
Result: 7

Query: Request the reported Human Liver S9 % Conversion @ 1 hour associated with `COC[C@H](NC(=O)c1cnc(C)s1)C(=O)N[C@@H](COC)C(=O)N[C@@H](Cc1ccccc1)C(=O)[C@@](C)(CI)OC(=O)OCc1ccc(OC(C)=O)cc1`
Result: 28

Query: Request the reported Human Liver S9 % Conversion @ 1 hour associated with `COC[C@H](NC(=O)c1cnc(C)s1)C(=O)N[C@@H](COC)C(=O)N[C@@H](Cc1ccccc1)C(=O)[C@@](C)(CI)OC(=O)CCCOC(C)=O`
Result: 11

Query: Request the reported Human Liver S9 % Conversion @ 1 hour associated with `COC[C@H](NC(=O)c1cnc(C)s1)C(=O)N[C@@H](COC)C(=O)N[C@@H](Cc1ccccc1)C(=O)[C@@](C)(CI)OC(=O)OCc1oc(=O)oc1C`
Result: 30

Query: Request the reported Human Liver S9 % Conversion @ 1 hour associated with `COC[C@H](NC(=O)c1cnc(C)s1)C(=O)N[C@@H](COC)C(=O)N[C@@H](Cc1ccccc1)C(=O)[C@@](C)(CI)OC=O`
Result: 29

Query: Request the reported Human Liver S9 % Conversion @ 1 hour associated with `CCOC(=O)O[C@](C)(CI)C(=O)[C@H](Cc1ccccc1)NC(=O)[C@H](COC)NC(=O)[C@H](COC)NC(=O)c1cnc(C)s1`
Result: 14

Query: Request the reported Human Liver S9 % Conversion @ 1 hour associated with `CCOC(=O)CCC(=O)O[C@](C)(CI)C(=O)[C@H](Cc1ccccc1)NC(=O)[C@H](COC)NC(=O)[C@H](COC)NC(=O)c1cnc(C)s1`
Result: 1
